Taken from patent US10259810B2.

Give pEC50 for every item shown.
- study system: ΔF508-CFTR (Homo sapiens, UniProt P13569, DEL508-508)
- Construct: host or cells: CFBE41o-, doxycycline-inducible
- Sequence (P13569 with tags, fused parts or gaps DEL508-508): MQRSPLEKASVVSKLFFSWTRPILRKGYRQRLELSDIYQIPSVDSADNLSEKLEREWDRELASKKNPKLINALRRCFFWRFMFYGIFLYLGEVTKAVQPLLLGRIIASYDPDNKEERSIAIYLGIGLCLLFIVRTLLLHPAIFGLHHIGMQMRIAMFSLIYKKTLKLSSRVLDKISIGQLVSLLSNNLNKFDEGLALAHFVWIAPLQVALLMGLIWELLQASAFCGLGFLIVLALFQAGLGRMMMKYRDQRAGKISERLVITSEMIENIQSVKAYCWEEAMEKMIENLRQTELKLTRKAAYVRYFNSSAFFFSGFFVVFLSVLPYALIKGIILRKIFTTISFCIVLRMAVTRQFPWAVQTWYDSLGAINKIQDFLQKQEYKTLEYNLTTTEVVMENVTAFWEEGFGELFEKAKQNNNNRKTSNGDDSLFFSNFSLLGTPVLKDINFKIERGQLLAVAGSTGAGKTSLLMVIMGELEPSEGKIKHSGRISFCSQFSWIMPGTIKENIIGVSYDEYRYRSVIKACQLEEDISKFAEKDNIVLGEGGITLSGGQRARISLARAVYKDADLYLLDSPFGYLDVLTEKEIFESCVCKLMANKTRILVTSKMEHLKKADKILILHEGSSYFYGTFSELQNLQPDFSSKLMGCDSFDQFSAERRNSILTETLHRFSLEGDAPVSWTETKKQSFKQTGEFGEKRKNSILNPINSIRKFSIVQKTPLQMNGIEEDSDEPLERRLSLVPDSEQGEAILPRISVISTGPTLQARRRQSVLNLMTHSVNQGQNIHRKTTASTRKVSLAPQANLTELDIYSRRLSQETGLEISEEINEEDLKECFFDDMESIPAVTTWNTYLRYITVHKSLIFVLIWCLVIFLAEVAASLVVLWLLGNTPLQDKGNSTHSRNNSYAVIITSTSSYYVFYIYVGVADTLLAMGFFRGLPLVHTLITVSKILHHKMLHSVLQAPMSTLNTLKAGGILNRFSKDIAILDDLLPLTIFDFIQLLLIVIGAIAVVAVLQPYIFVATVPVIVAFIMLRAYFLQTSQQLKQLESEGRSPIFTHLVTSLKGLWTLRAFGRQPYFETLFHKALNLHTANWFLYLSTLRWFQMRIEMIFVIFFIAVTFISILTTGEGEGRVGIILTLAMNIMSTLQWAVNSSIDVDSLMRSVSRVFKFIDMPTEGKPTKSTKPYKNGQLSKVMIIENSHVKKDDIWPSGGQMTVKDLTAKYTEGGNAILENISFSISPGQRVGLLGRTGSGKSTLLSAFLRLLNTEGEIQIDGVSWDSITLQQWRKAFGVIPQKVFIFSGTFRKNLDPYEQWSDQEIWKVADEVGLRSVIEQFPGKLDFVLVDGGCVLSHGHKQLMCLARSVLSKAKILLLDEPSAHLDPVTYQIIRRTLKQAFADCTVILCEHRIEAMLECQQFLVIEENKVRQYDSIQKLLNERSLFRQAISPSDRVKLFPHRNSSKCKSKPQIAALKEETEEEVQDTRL
- experiment description: CFTR cell surface levels using HRP-tagged ΔF508-CFTR expressing CFBE cells, in the presence of a co-corrector
- Format: cell-based
- condition info: HRP-tagged ΔF508-CFTR CFBE cells, in the presence of 3 μM co-corrector; read-out: EC50
- Excerpt: Measuring CFTR Cell Surface Levels Using HRP-Tagged ΔF508-CFTR Expressing CFBE Cells The HRP-tagged ΔF508-CFTR cell assay measures the expression of CFTR-ΔF508 at the plasma membrane. […] When HRP-tagged ΔF508-CFTR is present at the plasma membrane, the HRP enzyme activity can be measured. The amount of CFTR-ΔF508 that can be rescued to the plasma membrane is correlated with the amount of functional enzyme that can be measured. […]
Please report pEC50 as the negative decimal logarithm of the molar concentration, giving only the number.

-- ask So what's the measured pEC50 for this one? CS(=O)(=O)NC(=O)c1cc(N2CCC(OC3CCCC3)CC2)c2c(C3CCC3)nn(-c3ccccc3)c2n1 [Compound 228]
-- reply 6.48

-- ask Returns the measured pEC50 for the input compound. Input: CC(C)c1nn(-c2ccc(F)cc2)c2nc(C(=O)NS(C)(=O)=O)cc(OCCCN3CCOCC3)c12 [Compound 292]
-- reply 6.25

-- ask Requested field: pEC50. Item: CS(=O)(=O)NC(=O)c1cc(N2CCC(S(C)(=O)=O)CC2)c2c(C3CCC3)nn(-c3ccccc3)c2n1 [Compound 190]
-- reply 5.91

-- ask Recorded pEC50 of CC(=O)N1CCCN(S(=O)(=O)NC(=O)c2cc(OCC3CCOCC3)c3c(C4CCC4)nn(-c4ccccc4)c3n2)CC1 [Compound 357] , please.
-- reply 6.89
